- Tested on: IGF-1-induced EMT in NBT-II cells
- assay_explanation: EMT spot migration assay, IGF-1-induced
- Type: cell-based
- condition_info: IGF-1-induced EMT (150 ng/ml IGF-1), CDR dose response from 6.67 μM, read-out: Cell Dispersion IC 50, IGF-1
pIC50: −log10 of the molar value.
attribute_measured: pIC50

# substance_smiles, attribute_measured, value_prefix, reading
measured = [
    ("COc1cc2ncnc(Nc3cccc(Cl)c3)c2cc1OC", "pIC50", "<", 5.30),
    ("C#Cc1cccc(Nc2ncnc3cc(OCCOC)c(OCCOC)cc23)c1", "pIC50", "<", 5.30),
    ("Cc1cccc(-c2nn(C(=S)Nc3ccccc3)cc2-c2ccnc3ccccc23)n1", "pIC50", "=", 6.92),
    ("Cc1cc(N2CCOCC2)cc2[nH]c(-c3c(NC[C@@H](O)c4cccc(Cl)c4)cc[nH]c3=O)nc12", "pIC50", "=", 6.77),
    ("CNc1cc2c(Nc3cccc(Br)c3)ncnc2cn1", "pIC50", "<", 5.30),
]
